The measurements presented in this section are drawn from patent US20250270199A1.

test system: S. aureus ATCC 700699 (Sa 99); test: MIC, broth microdilution, Sa 99; format: cell-based; settings: Table 1, HT series; replicates from different days separated by comma
experimental_endpoint: Minimum inhibitory concentration (MIC) Sa 99 (µg/mL)

[
  {
    "given_smiles": "Oc1ccc(-c2nc(-c3ccccc3)cs2)cc1O",
    "recorded_result": 16
  },
  {
    "given_smiles": "O=c1oc2ccccc2cc1-c1csc(-c2ccc(O)c(O)c2)n1",
    "recorded_result": 32
  },
  {
    "given_smiles": "Oc1ccc(-c2csc(-c3ccc(O)c(O)c3)n2)cc1",
    "recorded_result": 8
  }
]

###

Test system: S. aureus ATCC 25923 (Sa 23)
Experiment: MIC, broth microdilution, Sa 23
Format: cell-based
Settings: Staphylococcus aureus, ATCC25923, Table 1, HT series; replicates from different days separated by comma; read-out: Minimum inhibitory concentration (MIC) Sa 23
Description: The broth microdilution method was utilized to determine MIC values of novel thiazole derivatives against different clinically important Gram-positive bacteria according to the guidelines outlined by the Clinical and Laboratory Standards Institute (CLSI) as reported in our recent papers.^1-5 The starting concentration of compounds for MIC determination was 64 μg/mL serially diluted down the wells and the MIC values were recorded in duplicates in three independent experiments on different days.

[
  {
    "given_smiles": "Oc1ccc(-c2nc(-c3ccc(Cl)cc3Cl)cs2)cc1O",
    "study_system": "S. aureus ATCC 25923 (Sa 23)",
    "unit_name": "µg/mL",
    "cmp": "=",
    "MIC": 2
  },
  {
    "given_smiles": "Oc1ccc(-c2nc(-c3ccc(Cl)c(Cl)c3)cs2)cc1O",
    "study_system": "S. aureus ATCC 25923 (Sa 23)",
    "unit_name": "µg/mL",
    "cmp": "=",
    "MIC": 4
  },
  {
    "given_smiles": "COc1ccc(-c2csc(-c3ccc(O)c(O)c3)n2)cc1",
    "study_system": "S. aureus ATCC 25923 (Sa 23)",
    "unit_name": "µg/mL",
    "cmp": "=",
    "MIC": 16
  },
  {
    "given_smiles": "Oc1ccc(-c2nc(-c3ccc(F)cc3)cs2)cc1O",
    "study_system": "S. aureus ATCC 25923 (Sa 23)",
    "unit_name": "µg/mL",
    "cmp": "=",
    "MIC": 4
  },
  {
    "given_smiles": "Oc1ccc(-c2nc(C(F)(F)F)cs2)cc1O",
    "study_system": "S. aureus ATCC 25923 (Sa 23)",
    "unit_name": "µg/mL",
    "cmp": ">",
    "MIC": 32
  },
  {
    "given_smiles": "Oc1ccc(-c2nc(-c3cc(C(F)(F)F)cc(C(F)(F)F)c3)cs2)cc1O",
    "study_system": "S. aureus ATCC 25923 (Sa 23)",
    "unit_name": "µg/mL",
    "cmp": "=",
    "MIC": 2
  },
  {
    "given_smiles": "Oc1ccc(-c2nc(-c3ccc4ccccc4c3)cs2)cc1O",
    "study_system": "S. aureus ATCC 25923 (Sa 23)",
    "unit_name": "µg/mL",
    "cmp": "=",
    "MIC": 2
  },
  {
    "given_smiles": "Oc1ccc(-c2nc(-c3ccc(Cl)c(Cl)c3)cs2)cc1",
    "study_system": "S. aureus ATCC 25923 (Sa 23)",
    "unit_name": "µg/mL",
    "cmp": "=",
    "MIC": 1
  },
  {
    "given_smiles": "Oc1ccc(-c2nc(-c3ccncc3)cs2)cc1O",
    "study_system": "S. aureus ATCC 25923 (Sa 23)",
    "unit_name": "µg/mL",
    "cmp": ">",
    "MIC": 32
  },
  {
    "given_smiles": "O=C(O)c1ccc(-c2csc(-c3ccc(O)c(O)c3)n2)cc1",
    "study_system": "S. aureus ATCC 25923 (Sa 23)",
    "unit_name": "µg/mL",
    "cmp": ">",
    "MIC": 32
  }
]

###

tested on: S. aureus ATCC 33591 (Sa 91); assay: MIC, broth microdilution, Sa 91; format: cell-based; conditions: Staphylococcus aureus, ATCC33591; Table 2, HTM series; read-out: Minimum inhibitory concentration (MIC) Sa 91
Listing: MIC of selected compounds
experimental_endpoint: MIC (µg/mL)

[
  {
    "given_smiles": "Oc1ccc(-c2csc(-c3ccc(Cl)c(Cl)c3)n2)cc1",
    "recorded_result": 1
  },
  {
    "given_smiles": "Oc1ccc(-c2csc(Nc3cc(C(F)(F)F)cc(C(F)(F)F)c3)n2)cc1",
    "recorded_result": 1
  },
  {
    "given_smiles": "Oc1ccc(-c2csc(-c3ccc(C(F)(F)F)cc3)n2)cc1O",
    "recorded_result": 8
  },
  {
    "given_smiles": "Cc1ccc(Nc2nc(-c3ccc(O)cc3)cs2)cc1Cl",
    "recorded_result": 8
  },
  {
    "given_smiles": "Oc1ccc(-c2csc(Nc3ccc(Cl)c(Cl)c3)n2)cc1",
    "recorded_result": 2
  },
  {
    "given_smiles": "Oc1ccc(-c2csc(Nc3ccc(Cl)c(Cl)c3)n2)cc1O",
    "recorded_result": 8
  },
  {
    "given_smiles": "Oc1ccc(-c2csc(Nc3cc(Cl)ccc3Cl)n2)cc1",
    "recorded_result": 4
  },
  {
    "given_smiles": "Oc1ccc(-c2csc(Nc3cc(Cl)c(Cl)cc3Cl)n2)cc1",
    "recorded_result": 1
  },
  {
    "given_smiles": "Oc1ccc(-c2csc(Nc3cc(C(F)(F)F)cc(C(F)(F)F)c3)n2)cc1O",
    "recorded_result": 4
  },
  {
    "given_smiles": "Oc1ccc(-c2csc(-c3cc(Cl)cc(Cl)c3)n2)cc1",
    "recorded_result": 1
  }
]

###

tested on: S. aureus ATCC 25923 (Sa 23); assay: MIC, broth microdilution, Sa 23; assay type: cell-based; conditions: Staphylococcus aureus, ATCC25923, Table 1, HT series; replicates from different days separated by comma; read-out: Minimum inhibitory concentration (MIC) Sa 23

[
  {
    "compound": "Oc1ccc(-c2nc(-c3cccc(Cl)c3)cs2)cc1 [Compound 38, 4-(4-(3-chlorophenyl)thiazol-2-yl)phenol]",
    "cmp": "=",
    "MIC (µg/mL)": 4
  },
  {
    "compound": "Oc1ccc(-c2nc(-c3ccc(Br)cc3)cs2)cc1O [Compound 5]",
    "cmp": "=",
    "MIC (µg/mL)": 2
  },
  {
    "compound": "Oc1ccc(-c2nc(-c3ccc(-c4ccccc4)cc3)cs2)cc1O [Compound 15]",
    "cmp": ">",
    "MIC (µg/mL)": 32
  },
  {
    "compound": "Oc1ccc(-c2nc(-c3cccc(Cl)c3)cs2)cc1O [Compound 3]",
    "cmp": "=",
    "MIC (µg/mL)": 2
  },
  {
    "compound": "Oc1ccc(-c2nc(-c3ccc(C(F)(F)F)cc3)cs2)cc1O [Compound 9]",
    "cmp": "=",
    "MIC (µg/mL)": 2
  },
  {
    "compound": "O=c1oc2ccccc2cc1-c1csc(-c2ccc(O)c(O)c2)n1 [Compound 17]",
    "cmp": ">",
    "MIC (µg/mL)": 32
  },
  {
    "compound": "N#Cc1ccc(-c2csc(-c3ccc(O)c(O)c3)n2)cc1 [Compound 12]",
    "cmp": ">",
    "MIC (µg/mL)": 32
  },
  {
    "compound": "Oc1ccc(-c2nc(-c3ccc(C(F)(F)F)cc3)cs2)cc1 [Compound 39]",
    "cmp": "=",
    "MIC (µg/mL)": 2
  },
  {
    "compound": "Oc1ccc(-c2nc(-c3ccccc3)cs2)cc1O [Compound 2, 4-(4-phenylthiazol-2-yl)benzene-1,2-diol]",
    "cmp": "=",
    "MIC (µg/mL)": 8
  }
]

###

test system: S. aureus LAC MRSA (Sa LAC); assay: MIC, broth microdilution, Sa LAC; assay type: cell-based; conditions: Staphylococcus aureus, Table 1, HT series, read-out: Minimum inhibitory concentration (MIC) Sa LAC

[
  {
    "given_smiles": "Oc1ccc(-c2nc(-c3ccc(Cl)cc3Cl)cs2)cc1O",
    "unit_name": "µg/mL",
    "MIC": 8
  },
  {
    "given_smiles": "Oc1ccc(-c2nc(-c3ccc(F)cc3)cs2)cc1O",
    "unit_name": "µg/mL",
    "MIC": 16
  },
  {
    "given_smiles": "Oc1ccc(-c2csc(-c3ccc(O)c(O)c3)n2)cc1",
    "unit_name": "µg/mL",
    "MIC": 16
  },
  {
    "given_smiles": "Oc1ccc(-c2nc(-c3ccc4ccccc4c3)cs2)cc1O",
    "unit_name": "µg/mL",
    "MIC": 4
  }
]
